Entries and their TGI
# Tested on: KM12 colon
# PROCEDURE_SUMMARY: NCI tumour cell line growth inhibition, 48 h

Past entries and their recorded results:
1) CCCCCCN(CCCCCC)C(=N)c1ccnc2ccccc12	15.2 µM
2) CCOC(=O)/C(C#N)=C(/NS(=O)(=O)c1cc(C)c(Cl)cc1[S-])[n+]1ccc(N(C)C)cc1	> 100 µM
3) Cc1ccc(SCC(OCn2cnc3c(N)ncnc32)[C@H](C)F)cc1 (stereo not given in full)	> 100 µM
4) C#C[C@@]1(O)[C@@H](CO)O[C@@H](n2cc(Cl)c3c(N)ncnc32)[C@@H]1O	> 100 µM
5) CC[C@H](C)c1occ2c(O)c(C(=O)O)c(=O)cc-2c1C	35.7 µM
6) O=C(O)C(=O)Cc1ccc2c(c1)OCO2	> 100 µM
7) C1COC2SC3=C(SC(=C4SC5=C(SCCS5)S4)S3)SC2O1 (stereo not given)	> 100 µM
8) CCOC(=O)c1sc2nc(SC)nc(Nc3ccc4c(c3)OCCCO4)c2c1N	> 100 µM
9) CCOC(=O)CSc1nc(-c2ccc(OC)cc2)c(C#N)c(=O)[nH]1	> 100 µM
10) O=C(O)CN1CCNCCN(CC(=O)O)CC1	> 100 µM

Problem: // lookup TGI for O=C1O/C(=C\c2ccc(O)c(Br)c2)C(c2ccc(O)cc2)=C1Cl
Solution: > 100 µM

Problem: # repeat for O=C1CCC(=O)N1CNc1ccc2c(c1)Sc1ccccc1O2
Solution: > 100 µM

Problem: // repeat for O=C(NNC(=S)Nc1ccccc1)C12CC3CC(CC(C3)C1)C2 and report
Solution: > 100 µM

Problem: Try the molecule C/C(CC(=O)CCCC(=O)Nc1ccc(Cl)cc1Cl)=N/NC(=O)CC#N
Solution: > 100 µM

Problem: Next record, please: CN(C)CCOc1cc2c(c3ccccc13)-c1ccccc1C2=O
Solution: 3.03 µM
